system: S. cerevisiae expressing PfHSP40, growth rescue, plate reader; experiment: Yeast growth rescue from Plasmodium falciparum HSP40 toxicity, dose response confirmatory, plate reader (AID 540271);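 note: yeast growth read after three days of incubation at 30 °C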
reported property: AC50

Need AC50, item CCCn1nc(C(=O)N2CCN(S(=O)(=O)c3ccc(C)c(C)c3)CC2)c2ccccc2c1=O
6.13 µM

Entry O=P(Nc1cccnc1)(Oc1ccccc1Cl)Oc1ccccc1Cl has what AC50?
6.5 µM

// query AC50 value for entry COc1cccc(-n2nc(C#N)c(Cl)cc2=O)c1
5.59 µM

Query (compound): CCOc1ccc(N/N=C(/C#N)C(N)=O)cc1 ; field requested: AC50
4.1 µM

Fill blank: measured AC50 of the compound COc1cccc(CNC(=O)CSc2ccc(-c3ccccn3)nn2)c1 is ____.
5.07 µM

What AC50 value was documented for this compound, CC(C)c1cc(-c2cc(C(=O)NCc3ccccc3)on2)nc(NCC2CC2)n1 ?
5.24 µM

What AC50 value was documented for this compound, CCc1ccc(OCc2n[nH]c(=S)n2Cc2ccccc2)cc1 ?
5.29 µM

I have this compound here, Cc1nc2c(o1)C(=O)c1ccccc1C2=Nc1ccccc1 , and I need its recorded AC50.
5.02 µM

Any idea what AC50 was measured for O=C1OC(c2ccccc2)=NC12CC2c1ccc(Cl)cc1 (stereo unspecified) ?
2.2 µM

AC50 lookup needed for COc1ccc(N(C(=O)c2ccncc2)S(=O)(=O)c2ccc(F)cc2)cc1 , thanks.
5.25 µM

Entry NC(=O)N=Nc1c2[nH]c3ccccc3nc-2c2ccccc12 has what AC50?
3.89 µM

----------
system: S. cerevisiae expressing PfHSP40, growth rescue, plate reader; assay: Yeast growth rescue from Plasmodium falciparum HSP40 toxicity, dose response confirmatory, plate reader (AID 540271);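 note: yeast growth read after three days of incubation at 30 °C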
Calls of active or inactive are those of the source. No rule for the calls is given here.
reported property: AC50

Fill in: AC50 of CCCCNc1c(-c2ccc(-c3ccc(OC)cc3)c(OC)c2)nc2ccccn12 is ___
5.48 µM

What value of AC50 has been recorded for this entry: CCCC(C)Sc1nc2c([nH]1)c(=S)n(C)c(=O)n2C (stereo not drawn)
8.18 µM

Need AC50 of C=C(C)COc1ccc(-c2[nH]ncc2-c2ccccc2)c(O)c1 , thanks.
5.52 µM

Field request: AC50 | item: N=c1c2c(-c3ccccc3)c(-c3ccccc3)n(Cc3ccco3)c2ncn1CCCn1ccnc1
> 12 µM (inactive)

Fill blank: measured AC50 of the molecule Oc1c(Br)cc(Br)cc1CNc1ccc(F)cc1 is ____.
6.21 µM

# get_value(readout='AC50', item= c1ccc(CSc2ccc(-c3ccccn3)nn2)nc1 )
4.49 µM

What value of measured AC50 is listed for Oc1ccc(N=Nc2ccc3c(c2)OCCO3)c2cccnc12 ?
1.85 µM

Entry CC1=C(C)/C(=N\OS(=O)(=O)c2ccc(C)cc2)C=CC1=O : reported AC50 = ?
5 µM

Looking for the measured AC50 of COc1ccc(O)c(C(=O)CC(=O)c2ccccc2C)c1 , can you help?
6.31 µM

// lookup AC50 for Cc1cc(-c2ccccc2)n(-c2cc(N/N=C/c3ccccc3O)ncn2)n1
5.77 µM

Find the recorded AC50 belonging to CCc1cc(-c2[nH]ncc2-c2ccc([N+](=O)[O-])cc2)c(O)cc1OC and report it.
6.19 µM

Value lookup for AC50; key = Cc1ccc(S(=O)(=O)Nc2ccc(O)c3cccnc23)cc1
> 12 µM (inactive)

Entry O=[N+]([O-])c1ccc(-c2nc(-c3cccs3)c(-c3cccs3)[nH]2)cc1 has what AC50?
4.2 µM

Which AC50 value belongs to CC(C)CNC(=O)COC(=O)c1ccc([N+](=O)[O-])cc1Cl ?
> 12 µM (inactive)

Data request, read-out AC50, for O=C(Oc1c(Cl)cc(Cl)c2cccnc12)c1cccs1
1.94 µM

Given Cn1nc(C(F)(F)F)c(C#N)c1N1CCN(c2ccc(F)cc2)CC1 , state its recorded AC50.
7.37 µM

Field request: AC50 | item: Cc1ccc(S(=O)(=O)N(C(=O)c2ccncc2)c2ccc(OC(=O)c3ccncc3)cc2)cc1
1.83 µM

Record request: AC50 value, item Cc1ccc(COc2ccc(Br)cc2/C=N/O)cc1
7.92 µM

Entry under review: CC1CCc2sc(-c3n[nH]c(=S)o3)cc2C1 (stereo not drawn) . Reported AC50?
5.69 µM

Which value of AC50 has been reported for CN(C)c1ccc(C=c2c3ccccc3n3c2c2c([n+]3C)CCCC2)cc1 in the records?
2.64 µM

Consider the molecule Nc1cc2c3ccccc3ccc2c2ccccc12 and give its measured AC50.
2.13 µM

Quick check: AC50 of CCCCCCn1c(=O)c(C(=O)Nc2ncccc2C)c(O)c2ccccc21 ?
3.03 µM

Which AC50 is listed for O=C1c2ccccc2NC(c2ccc(-c3ccc(F)cc3)o2)N1O (stereo not drawn) ?
8.42 µM
